# run.description: DNDI: Lipophilicity (gLogD) at pH 3
# test.context: buffer, pH 3, logD
# chromatographic logD per record follows
observation.type: chromatographic logD

                                   compound  measured_number
0  CC(C)(F)CN1CCC(N(c2ccc(C(F)(F)F)cc2)c2cccnc2)CC1              1.8
1  CC(=O)C(C)N1CCC(N(c2ccc(C(F)(F)F)cc2)c2cccnc2)CC1 (stereo not given)              1.3
2  CCC(C(C)=O)N1CCC(N(c2ccc(C(F)(F)F)cc2)c2cccnc2)CC1 (stereo not given)              1.6
3  FC(F)(F)c1ccc(N(c2cccnc2)C2CCN(Cc3cccc(C(F)(F)F)c3)CC2)cc1              2.5
4  CC(O)C(C)N1CCC(N(c2ccc(C(F)(F)F)cc2)c2cccnc2)CC1 (stereo not given)              1.3
